- Test system: Candida albicans
- method_notes: Antifungal microtiter broth assay
- Assay type: cell-based
- experimental_setup: 24 hours, 37° C., RPMI medium, scored visually
value_type: IC50 (µg/mL)

* CC(CCCCCC/C=C/C=C/c1ccccc1)C[C@]1(C)C[C@@](C)(CC(=O)O)OO1 (stereo partly drawn) [Peroxyacid 3] | 31.2
* CC/C=C/C=C/C=C/CCCCCCCC[C@]1(C)C[C@@](C)(CC(=O)O)OO1 [Peroxyacid 2] | 25
* CC(CCCCCC/C=C/C=C/c1ccccc1)C[C@]1(C)C[C@](C)(CC(=O)O)OO1 (stereo partly drawn) [Peroxyacid 4] | 31.2

(I) CC/C=C/C=C/C=C/CCCCCCCC[C@]1(C)C[C@](C)(CC(=O)O)OO1 [Peroxyacid 1]
(II) CC/C=C/C(CC)C/C=C/[C@@]1(CC)C[C@H](CC)[C@@H](CC(=O)O)OO1 (stereo partly drawn) [Peroxyacid 6]
(III) C[C@]1(CCCCCCCCCCc2ccccc2)C[C@](C)(CC(=O)O)OO1 [Peroxyacid 5, Epiplakinic Acid h]
// query Order the items by recorded IC50; the first position goes to the largest value. Quick reminder: the answer is the labels in the order asked.
// result I, II, III

====

- Tested on: Candida albicans
- method_notes: Antifungal microtiter broth assay
- Format: cell-based
- experimental_setup: 24 hours, 37° C., RPMI medium, scored visually
value_type: IC90 (mg/L)

Before answering, review these 4 worked examples.
- CC(CCCCCC/C=C/C=C/c1ccccc1)C[C@]1(C)C[C@@](C)(CC(=O)O)OO1 (stereo partly drawn): 62.5
- CC(CCCCCC/C=C/C=C/c1ccccc1)C[C@]1(C)C[C@](C)(CC(=O)O)OO1 (stereo partly drawn): 31.2
- CC/C=C/C=C/C=C/CCCCCCCC[C@]1(C)C[C@](C)(CC(=O)O)OO1: 25
- CC/C=C/C=C/C=C/CCCCCCCC[C@]1(C)C[C@@](C)(CC(=O)O)OO1: 25

(1) C[C@]1(CCCCCCCCCCc2ccccc2)C[C@](C)(CC(=O)O)OO1 [Peroxyacid 5, Epiplakinic Acid h]
(2) CC/C=C/C(CC)C/C=C/[C@@]1(CC)C[C@H](CC)[C@@H](CC(=O)O)OO1 (stereo partly drawn)
// query Of 1 and 2 , which shows the smaller IC90 value? // return label of chosen record
// result 1
